Taken from patent US20080194482A1.

# Lookup of reported Rat VPAC1 Receptor: DiscoveRx (EC50; nM), cAMP generation keyed by entry
# test.system: T1, rat VPAC1 receptor (rat, UniProt P30083 31-459)
# T1 sequence (looked up): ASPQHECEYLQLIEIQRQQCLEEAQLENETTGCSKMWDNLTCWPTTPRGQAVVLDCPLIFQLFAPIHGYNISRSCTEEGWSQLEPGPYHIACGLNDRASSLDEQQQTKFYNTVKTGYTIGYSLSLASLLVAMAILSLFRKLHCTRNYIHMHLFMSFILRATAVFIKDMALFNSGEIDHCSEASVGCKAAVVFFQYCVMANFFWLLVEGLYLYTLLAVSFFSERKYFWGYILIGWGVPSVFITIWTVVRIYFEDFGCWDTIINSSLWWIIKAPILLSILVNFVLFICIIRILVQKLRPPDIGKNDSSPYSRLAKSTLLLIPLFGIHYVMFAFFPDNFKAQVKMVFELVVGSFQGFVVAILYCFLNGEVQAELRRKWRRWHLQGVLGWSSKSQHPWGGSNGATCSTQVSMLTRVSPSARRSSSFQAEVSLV
# protocol.description: cell-based or functional assay
Entry rule: numbers only, all in nM.

Some solved cases for reference:
[
  {
    "binder": "HSDAVFTDNYTXLRXQVAAXKYLSSIXNXGGPSSGAPPPS (N-terminal hexanoyl (C6); Orn at 12, 27 and 29; Aib at 15 and 20) [VPAC2 receptor peptide agonist P383]",
    "value.unit": "nM",
    "observed.measurement": 1.68
  },
  {
    "binder": "HSDAVFTDNYTXLRXQSAAXKYLQSIXNXGGPSSGAPPPS (N-terminal hexanoyl (C6); Orn at 12, 27 and 29; Aib at 15 and 20) [VPAC2 receptor peptide agonist P389]",
    "value.unit": "nM",
    "observed.measurement": 4.4
  }
]

Attention now shifts to the item below.
**Q:** So what does the record say about Rat VPAC1 Receptor: DiscoveRx (EC50; nM), cAMP generation for HSEAVFTEQYTXLRXQLAAXXYLQSIXXGGPSSGAPPPS (N-terminal hexanoyl (C6); Tyr(OMe) at 10; Orn at 12, 21, 27 and 28; Aib at 15 and 20) [VPAC2 receptor peptide agonist P393] ?
**A:** 16
